- Tested on: foot mucosa of slugs of the species Arion
- test method notes: Slug mucosal toxicity test of local anaesthetics, Example 4
- Format: in vivo
- experimental parameters: Arion (slug), in vivo, 4 day
Structures can show the parent of a compound that is named as a salt.
Quick list: Total protein release into PBS per entry.
readout kind: Total protein release into PBS

INSERT INTO results (compound, reported_measurement) VALUES
  ('CCCCNc1ccc(C(=O)OCCN(C)C)cc1 [Tetracaine HCl, tetracaine HCl]', '128 µg/mL'),
  ('CCCNC(C)C(=O)Nc1ccccc1C (stereo not shown) [Prilocaine HCl, prilocaine HCl]', '65 µg/mL'),
  ('CCCCN1CCCCC1C(=O)Nc1c(C)cccc1C (stereo not shown) [Bupivacaine HCl, bupivacaine HCl]', '159 µg/mL'),
  ('CCN(CC)CCOC(=O)c1ccc(N)cc1 [Procaine HCl, procaine HCl]', '54 µg/mL');
